test system: BT-549; test: NCI tumour cell line growth inhibition, 48 h
Calls of active or inactive are those of the source. Cut-off read from the data, not from the text of the source: active = GI50 up to about 1.1 µM and inactive = higher. Where a SMILES comes first, the peptide text is derived from it. [ ]: non-standard residue; d: D form. The star is where a group is joined. NMeAc5c = CNC1(C(=O)O)CCCC1; Boc = CC(C)(C)OC(=O)*; OBn = c1ccc(CO*)cc1
Catalogue of compounds with associated GI50

As a guide, the following entries are already answered.
[
  {
    "Compound": "Nc1nc2c(ncn2C2CCC(CO)O2)c(=O)n1C(=O)c1ccccc1 (configuration not stated)",
    "Target of assay": "BT-549",
    "GI50": "> 100 µM (inactive)"
  },
  {
    "Compound": "N=c1nc(N)nc(N)n1-c1ccc(S(N)(=O)=O)cc1",
    "Target of assay": "BT-549",
    "GI50": "> 100 µM (inactive)"
  },
  {
    "Compound": "CCc1n[nH]c(=O)n1O",
    "Target of assay": "BT-549",
    "GI50": "> 100 µM (inactive)"
  }
]

Which GI50 is listed for `CCCCn1c(O)nc2c(N)ncnc21` ?
> 100 µM (inactive)

Which GI50 is listed for `CCC/N=C(/NC(=O)c1ccc(Cl)cc1)SC` ?
25.5 µM (inactive)

Which GI50 is listed for C=CCN1C[C@H](C)N([C@H](c2ccc(C(=O)N(CC)CC)cc2)c2cccc(OC)c2)C[C@H]1C [SNC-80] ?
41.1 µM (inactive)

Which GI50 is listed for CN(C(=O)C(Cc1ccccc1)NC(=O)OC(C)(C)C)C1(C(=O)NC(Cc2ccccc2)C(=O)OCc2ccccc2)CCCC1 (stereo not drawn) (Boc-Phe-[NMeAc5c]-Phe-OBn; configuration not given here) ?
> 100 µM (inactive)

---

system: NCI-H226; assay: NCI tumour cell line growth inhibition, 48 h
Calls of active or inactive are those of the source. No stated cut-off is given here; in the data, active = GI50 up to about 1.1 µM and inactive = higher.
Catalogue of compounds with associated GI50

As a guide, the following entries are already answered.
[
  {
    "Compound": "FC(F)(F)c1cc(C2SCc3nc4ccccc4n32)cc(C(F)(F)F)c1 (stereo not given)",
    "Target of assay": "NCI-H226",
    "GI50": "6.41 µM (inactive)"
  },
  {
    "Compound": "CC(=O)OC1CC[C@@]2(C)C(CC(OC3OC(CO)C(O)C(O)C3O)[C@]3(C)C2CCC24CC23CC[C@H]4C(C)CC(O)[C@@H](O)C(C)(C)O)C1(C)C (stereo not given in full)",
    "Target of assay": "NCI-H226",
    "GI50": "17 µM (inactive)"
  }
]

Consider now this further compound.
Which GI50 is listed for Cc1ccc(OCC2OC(n3cnc4nc(Cl)nc(Cl)c43)CC2Oc2ccc(C)cc2)cc1 (stereo not given) ?
12 µM (inactive)

---

Catalogue of compounds with associated GI50
tested on: PC-3; assay: NCI tumour cell line growth inhibition, 48 h
Calls of active or inactive are those of the source. No stated cut-off is given here; in the data, active = GI50 up to about 1.1 µM and inactive = higher.

As a guide, the following entries are already answered.
[
  {
    "Compound": "NC(=O)c1ncn(C2C=CC(CP(=O)(O)O)C2)c1N (stereo unspecified)",
    "GI50": "> 100 µM (inactive)"
  },
  {
    "Compound": "CCCCc1ccc(Nc2cc(=O)n(C)c(=O)[nH]2)cc1",
    "GI50": "91.2 µM (inactive)"
  },
  {
    "Compound": "CCCOC1OC(CS(=O)(=O)O)C(OC(C)=O)C(OC(C)=O)C1OC(C)=O (stereo unspecified)",
    "GI50": "> 100 µM (inactive)"
  },
  {
    "Compound": "OC[C@H]1CC(c2nn[nH]n2)[C@H](O)[C@@H]1O (stereo partly specified)",
    "GI50": "> 100 µM (inactive)"
  },
  {
    "Compound": "Cc1ccsc1/C=N/NC1=NCCN1",
    "GI50": "> 100 µM (inactive)"
  },
  {
    "Compound": "CC(=O)OC1C2CCC1C1C2N=NN1c1ccc([N+](=O)[O-])cc1 (stereo unspecified)",
    "GI50": "> 100 µM (inactive)"
  }
]

Consider now this further compound.
Which GI50 is listed for `Oc1ccc2ccccc2c1CCc1c(O)ccc2ccccc12` ?
13.9 µM (inactive)

The values you see were collected from ChEMBL document CHEMBL1201862.
